# assay: LNP characterization (diameter, PDI, % EE)
# Type: physicochemical
# condition-context: LNP formulated with the named lipid; Ribogreen assay
endpoint-name: EE % (%)
Give bare numbers, in %.

Study these solved cases before continuing.
molecule	val
CC/C=C\CCCCCCCC(=O)OCC(O)CN1CCN(CC(O)COC(=O)CCCCCCC/C=C\CC)CCN(CC(O)COC(=O)CCCCCCC/C=C\CC)CCN(CC(O)COC(=O)CCCCCCC/C=C\CC)CCN(CC(O)COC(=O)CCCCCCC/C=C\CC)CCN(CC(O)COC(=O)CCCCCCC/C=C\CC)CC1 (stereo not shown)	78.09
CC/C=C\C/C=C\CCCCC(=O)OCC(O)CN1CCN(CC(O)COC(=O)CCCC/C=C\C/C=C\CC)CCN(CC(O)COC(=O)CCCC/C=C\C/C=C\CC)CCN(CC(O)COC(=O)CCCC/C=C\C/C=C\CC)CCN(CC(O)COC(=O)CCCC/C=C\C/C=C\CC)CCN(CC(O)COC(=O)CCCC/C=C\C/C=C\CC)CC1 (stereo not shown)	88.37
CCC/C=C\CCCCCCC(=O)OCC(O)CN1CCN(CC(O)COC(=O)CCCCCC/C=C\CCC)CCN(CC(O)COC(=O)CCCCCC/C=C\CCC)CCN(CC(O)COC(=O)CCCCCC/C=C\CCC)CCN(CC(O)COC(=O)CCCCCC/C=C\CCC)CCN(CC(O)COC(=O)CCCCCC/C=C\CCC)CC1 (stereo not shown)	56.9

Next up:
Query: EE %; subject: C/C=C\C/C=C\CCCCCC(=O)OCC(O)CN1CCN(CC(O)COC(=O)CCCCC/C=C\C/C=C\C)CCN(CC(O)COC(=O)CCCCC/C=C\C/C=C\C)CCN(CC(O)COC(=O)CCCCC/C=C\C/C=C\C)CCN(CC(O)COC(=O)CCCCC/C=C\C/C=C\C)CCN(CC(O)COC(=O)CCCCC/C=C\C/C=C\C)CC1 (stereo not shown)
85.76

====

I'd appreciate it if you could supply EE % values for the items below.
# assay: LNP characterization (diameter, PDI, % EE)
# Type: physicochemical
# condition-context: LNP formulated with the named lipid; Ribogreen assay
Numbers only, in %.

compound	EE % (%)
CCCC/C=C\C/C=C\CCC(=O)OCC(O)CN1CCN(CC(O)COC(=O)CC/C=C\C/C=C\CCCC)CCN(CC(O)COC(=O)CC/C=C\C/C=C\CCCC)CCN(CC(O)COC(=O)CC/C=C\C/C=C\CCCC)CCN(CC(O)COC(=O)CC/C=C\C/C=C\CCCC)CCN(CC(O)COC(=O)CC/C=C\C/C=C\CCCC)CC1 (centres unmarked)	89.0186
CCCCCC/C=C\CCCC(=O)OCC(O)CN1CCN(CC(O)COC(=O)CCC/C=C\CCCCCC)CCN(CC(O)COC(=O)CCC/C=C\CCCCCC)CCN(CC(O)COC(=O)CCC/C=C\CCCCCC)CCN(CC(O)COC(=O)CCC/C=C\CCCCCC)CCN(CC(O)COC(=O)CCC/C=C\CCCCCC)CCN(CC(O)COC(=O)CCC/C=C\CCCCCC)CC1 (centres unmarked)	82.99
C/C=C\CCCCCCCCC(=O)OCC(O)CN1CCN(CC(O)COC(=O)CCCCCCCC/C=C\C)CCN(CC(O)COC(=O)CCCCCCCC/C=C\C)CCN(CC(O)COC(=O)CCCCCCCC/C=C\C)CCN(CC(O)COC(=O)CCCCCCCC/C=C\C)CCN(CC(O)COC(=O)CCCCCCCC/C=C\C)CC1 (centres unmarked)	67.41
CCC/C=C\C/C=C\CCCC(=O)OCC(O)CN1CCN(CC(O)COC(=O)CCC/C=C\C/C=C\CCC)CCN(CC(O)COC(=O)CCC/C=C\C/C=C\CCC)CCN(CC(O)COC(=O)CCC/C=C\C/C=C\CCC)CCN(CC(O)COC(=O)CCC/C=C\C/C=C\CCC)CCN(CC(O)COC(=O)CCC/C=C\C/C=C\CCC)CC1 (centres unmarked)	91.711

Query: EE %; subject: CCCC/C=C\CCCCCC(=O)OCC(O)CN1CCN(CC(O)COC(=O)CCCCC/C=C\CCCC)CCN(CC(O)COC(=O)CCCCC/C=C\CCCC)CCN(CC(O)COC(=O)CCCCC/C=C\CCCC)CCN(CC(O)COC(=O)CCCCC/C=C\CCCC)CCN(CC(O)COC(=O)CCCCC/C=C\CCCC)CC1 (centres unmarked)
54.6
